Below, each entry is listed with its recorded relative viability.
- Tested on: LOU-NH91
- test: relative viability (nuclei count vs DMSO), 5 days (fraction); higher = more cells survive
- reported conditions: first compound 0.0002 µM
Please reply with the number alone, leaving off any unit.

CC(=O)O[C@@]12CO[C@@H]1C[C@H](O)[C@@]1(C)C(=O)[C@H](O)C3=C(C)[C@@H](OC(=O)[C@H](O)[C@@H](NC(=O)OC(C)(C)C)c4ccccc4)C[C@@](O)([C@@H](OC(=O)c4ccccc4)[C@H]21)C3(C)C [Docetaxel] + Cc1nc(NC(=O)N2CCC[C@H]2C(N)=O)sc1-c1ccnc(C(C)(C)C(F)(F)F)c1 [Alpelisib] (partner 2 µM) | 0.73
CC(=O)O[C@@]12CO[C@@H]1C[C@H](O)[C@@]1(C)C(=O)[C@H](O)C3=C(C)[C@@H](OC(=O)[C@H](O)[C@@H](NC(=O)OC(C)(C)C)c4ccccc4)C[C@@](O)([C@@H](OC(=O)c4ccccc4)[C@H]21)C3(C)C [Docetaxel] + Cc1cc(Nc2cc(N3CCN(C)CC3)nc(Sc3ccc(NC(=O)C4CC4)cc3)n2)n[nH]1 [Tozasertib] (partner 0.1 µM) | 0.657

Okay, next one:
Entry CC(=O)O[C@@]12CO[C@@H]1C[C@H](O)[C@@]1(C)C(=O)[C@H](O)C3=C(C)[C@@H](OC(=O)[C@H](O)[C@@H](NC(=O)OC(C)(C)C)c4ccccc4)C[C@@](O)([C@@H](OC(=O)c4ccccc4)[C@H]21)C3(C)C [Docetaxel] + CCNC(=O)c1noc(-c2cc(C(C)C)c(O)cc2O)c1-c1ccc(CN2CCOCC2)cc1 [Luminespib] (partner 0.01 µM) , tested on LOU-NH91, has a reported relative viability of 0.299

---

- Test system: NCI-H2170
- test: relative viability (nuclei count vs DMSO), 5 days (fraction); higher = more cells survive
- reported conditions: first compound 0.04 µM
readout name: relative viability

Cc1sc2c(c1C)C(c1ccc(Cl)cc1)=N[C@@H](CC(=O)OC(C)(C)C)c1nnc(C)n1-2 [JQ1] + COc1cc2c(Oc3ccc(NC(=O)C4(C(=O)Nc5ccc(F)cc5)CC4)cc3F)ccnc2cc1OCCCN1CCOCC1 [Foretinib] (partner 0.25 µM) | 1.03
Cc1sc2c(c1C)C(c1ccc(Cl)cc1)=N[C@@H](CC(=O)OC(C)(C)C)c1nnc(C)n1-2 [JQ1] + CS(=O)(=O)N1CCN(Cc2cc3nc(-c4cccc5[nH]ncc45)nc(N4CCOCC4)c3s2)CC1 [Pictilisib] (partner 1 µM) | 0.293

Recorded result, Cc1sc2c(c1C)C(c1ccc(Cl)cc1)=N[C@@H](CC(=O)OC(C)(C)C)c1nnc(C)n1-2 [JQ1] + O=C(CCCCCCC(=O)Nc1ccccc1)NO [Vorinostat] (partner 1 µM) , relative viability: 0.866

---

Below, each entry is listed with its recorded relative viability.
- System: NCI-H1395
- test: relative viability (nuclei count vs DMSO), 5 days (fraction); higher = more cells survive
- reported conditions: first compound 4 µM
Please reply with the number alone, leaving off any unit.

Cc1sc2c(c1C)C(c1ccc(Cl)cc1)=N[C@@H](CC(=O)OC(C)(C)C)c1nnc(C)n1-2 [JQ1] + Nc1ncn([C@H]2C[C@H](O)[C@@H](CO)O2)c(=O)n1 [Decitabine] (partner 2 µM) | 0.457
Cc1sc2c(c1C)C(c1ccc(Cl)cc1)=N[C@@H](CC(=O)OC(C)(C)C)c1nnc(C)n1-2 [JQ1] + NC(=O)Nc1cc(-c2cccc(F)c2)sc1C(=O)N[C@H]1CCCNC1 [AZD7762] (partner 0.2 µM) | 0.361
Cc1sc2c(c1C)C(c1ccc(Cl)cc1)=N[C@@H](CC(=O)OC(C)(C)C)c1nnc(C)n1-2 [JQ1] + Cc1nc(Nc2ncc(C(=O)Nc3c(C)cccc3Cl)s2)cc(N2CCN(CCO)CC2)n1 [Dasatinib] (partner 0.075 µM) | 0.388

Okay, next one:
Recorded result, Cc1sc2c(c1C)C(c1ccc(Cl)cc1)=N[C@@H](CC(=O)OC(C)(C)C)c1nnc(C)n1-2 [JQ1] + COc1cc2c(Oc3ccc(NC(=O)C4(C(=O)Nc5ccc(F)cc5)CC4)cc3F)ccnc2cc1OCCCN1CCOCC1 [Foretinib] (partner 0.25 µM) , relative viability: 0.525
